The measurements presented in this section are drawn from paper PMC10752118.

# MEASUREMENT DESCRIPTION: Plasma PK, noncompartmental analysis
# Assay type: in vivo, human
# CONDITION INFO: human, plasma, intravenous, mean AUCinf, range across all four DLs, cycle 1, day 8, 80 mg/m^2 in combination with onalespib
PROPERTY MEASURED: AUC(0-inf)

[[record]]
compound_structure_string = "CC(=O)O[C@H]1C(=O)[C@@]2(C)[C@H]([C@H](OC(=O)c3ccccc3)[C@]3(O)C[C@H](OC(=O)[C@H](O)[C@@H](NC(=O)c4ccccc4)c4ccccc4)C(C)=C1C3(C)C)[C@]1(OC(C)=O)CO[C@@H]1C[C@@H]2O"
value = "6.5 to 8.72 µM·h"

